IC50, HIF-2α HIS TAG-PASB Domain (Homo sapiens, UniProt Q99814), per-entry values.
readout: IC50

* CS(=O)(=O)c1ccc(Oc2cc(F)cc(F)c2)c2c1C(O)C(F)(F)C2 (stereo not shown) [Compound 159] | < 50 nM
* CS(=N)(=O)c1ccc(Oc2cc(F)cc(F)c2)c2c1[C@H](O)C(F)(F)C2 (stereo partly shown) [Compound 192] | 50 to 249 nM
* O[C@H]1c2c(C(F)(F)F)ccc(OCC(F)F)c2C[C@H]1F [Compound 696] | 50 to 249 nM
* O=S(=O)(c1ccc(O[C@@H]2CCCc3cn[nH]c32)c2c1[C@H](O)C(F)(F)C2)C(F)(F)F [Compound 729] | > 1000 nM
* O[C@H]1c2c(C(F)(F)F)ccc(OC(F)F)c2CC1F (stereo partly shown) [Compound 671] | > 1000 nM
* CC(=NO)c1c(S(=O)(=O)C(F)(F)F)ccc(Oc2cc(F)cc(Cl)c2)c1Br [Compound 106] | 250 to 1000 nM
* N#CC1CCc2c(OCC(F)F)ccc(C(F)(F)F)c21 (stereo not shown) [Compound 691] | > 1000 nM
* CCCOc1ccc(C2CC2)c2c1CC(F)(F)C2O (stereo not shown) [Compound 685] | > 1000 nM
* CCCOc1ccc(S(=O)(=O)C(F)F)c2c1CC(F)(F)[C@H]2O [Compound 676] | 50 to 249 nM
* O=S(=O)(c1ccc(OCC(F)F)c2c1[C@H](O)C(F)(F)C2)C(F)F [Compound 677] | < 50 nM
